EXPERIMENTAL TARGET: T1, human Klotho β (human, UniProt Q86Z14 1-1044)
T1 sequence (looked up): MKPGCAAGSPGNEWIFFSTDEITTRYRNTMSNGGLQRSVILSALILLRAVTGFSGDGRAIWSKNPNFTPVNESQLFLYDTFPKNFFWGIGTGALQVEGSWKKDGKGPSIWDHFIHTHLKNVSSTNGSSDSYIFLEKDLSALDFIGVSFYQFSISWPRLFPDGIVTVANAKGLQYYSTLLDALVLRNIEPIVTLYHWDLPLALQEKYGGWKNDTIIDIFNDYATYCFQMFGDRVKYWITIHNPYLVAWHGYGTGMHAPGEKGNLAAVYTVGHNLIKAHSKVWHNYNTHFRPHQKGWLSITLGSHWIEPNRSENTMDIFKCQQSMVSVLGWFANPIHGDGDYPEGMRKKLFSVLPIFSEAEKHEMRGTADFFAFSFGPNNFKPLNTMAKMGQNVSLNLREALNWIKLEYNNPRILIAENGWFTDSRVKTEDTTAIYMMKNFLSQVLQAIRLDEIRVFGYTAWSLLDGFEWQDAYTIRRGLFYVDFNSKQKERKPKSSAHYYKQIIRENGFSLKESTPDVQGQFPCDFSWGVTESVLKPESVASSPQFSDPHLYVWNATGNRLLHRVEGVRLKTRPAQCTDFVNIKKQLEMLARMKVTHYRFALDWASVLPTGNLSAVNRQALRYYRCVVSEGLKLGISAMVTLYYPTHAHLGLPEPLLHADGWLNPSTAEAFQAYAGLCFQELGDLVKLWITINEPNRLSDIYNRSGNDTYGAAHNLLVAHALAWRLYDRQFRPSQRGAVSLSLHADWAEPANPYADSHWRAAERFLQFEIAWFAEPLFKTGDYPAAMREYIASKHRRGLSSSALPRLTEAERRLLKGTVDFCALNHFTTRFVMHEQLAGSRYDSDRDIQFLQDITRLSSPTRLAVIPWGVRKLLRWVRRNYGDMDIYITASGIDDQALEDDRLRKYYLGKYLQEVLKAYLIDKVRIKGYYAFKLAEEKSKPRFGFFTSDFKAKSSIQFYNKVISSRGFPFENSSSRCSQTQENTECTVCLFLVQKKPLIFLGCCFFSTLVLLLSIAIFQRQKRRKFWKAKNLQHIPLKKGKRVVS
METHOD SUMMARY: cell-based or functional assay
No end group written: not given here.
The following binders are listed with their measured IC-50 of antagonism of FGF21 (pErk1/2, 293 HEK hKLB cells) values.
Write the answer as a number in nM, unit excluded.

PPDVGSSDPLSMVGPSQGRSPSYAS-NH2 [FGF21 157-181]	168

Looking for the measured IC-50 of antagonism of FGF21 (pErk1/2, 293 HEK hKLB cells) of PPDVGSSDPLSMVGPSAGRSPSYAS [FGF21 25mer A17] , can you help?
139

Cool, now PPDVGSSDPLSMVGPAQGRSPSYAS [FGF21 25mer A16]
120

Same read-out for PPDVGSSDPLSMVAPSQGRSPSYAS [FGF21 25mer A14] ?
136

Same lookup for PPDVGSSDPLSMVGASQGRSPSYAS [FGF21 25mer A15] , please.
134

What about PPDVGSSDPLSMVGPSQGASPSYAS [FGF21 25mer A19] ?
102
